Kd: recorded values
# targetOrSystem: AtFHA2 (Arabidopsis thaliana, UniProt Q9SFV2)
# Construct: recombinant AtFHA2 (AT3G07220.1)
# Sequence (Q9SFV2 2-320): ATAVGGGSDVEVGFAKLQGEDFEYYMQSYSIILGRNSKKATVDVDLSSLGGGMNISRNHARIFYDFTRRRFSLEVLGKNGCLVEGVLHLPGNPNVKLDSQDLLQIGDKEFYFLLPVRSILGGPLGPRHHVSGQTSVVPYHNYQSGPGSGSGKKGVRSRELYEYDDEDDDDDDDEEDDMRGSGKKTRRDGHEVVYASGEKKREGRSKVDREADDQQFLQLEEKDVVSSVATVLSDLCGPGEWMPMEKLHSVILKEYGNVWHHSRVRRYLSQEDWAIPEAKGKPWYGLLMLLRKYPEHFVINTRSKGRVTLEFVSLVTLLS
# measurementProtocol: isothermal titration calorimetry (ITC) with recombinant protein

{"structureString": "O=P(O)(O)O[C@H]1[C@H](OP(=O)(O)O)[C@@H](OP(=O)(O)O)[C@H](OP(=O)(O)OP(=O)(O)O)[C@@H](OP(=O)(O)O)[C@H]1OP(=O)(O)O", "Kd": "4.9 µM"}
{"structureString": "O=P(O)(O)O[C@H]1[C@H](OP(=O)(O)O)[C@@H](OP(=O)(O)O)[C@H](OP(=O)(O)O)[C@@H](OP(=O)(O)O)[C@H]1OP(=O)(O)O", "Kd": "> 100 µM"}
